Molecular target: KCNT1 (KNa1.1, Slack) (Homo sapiens, UniProt Q5JUK3)
Sequence (Q5JUK3 whole entry): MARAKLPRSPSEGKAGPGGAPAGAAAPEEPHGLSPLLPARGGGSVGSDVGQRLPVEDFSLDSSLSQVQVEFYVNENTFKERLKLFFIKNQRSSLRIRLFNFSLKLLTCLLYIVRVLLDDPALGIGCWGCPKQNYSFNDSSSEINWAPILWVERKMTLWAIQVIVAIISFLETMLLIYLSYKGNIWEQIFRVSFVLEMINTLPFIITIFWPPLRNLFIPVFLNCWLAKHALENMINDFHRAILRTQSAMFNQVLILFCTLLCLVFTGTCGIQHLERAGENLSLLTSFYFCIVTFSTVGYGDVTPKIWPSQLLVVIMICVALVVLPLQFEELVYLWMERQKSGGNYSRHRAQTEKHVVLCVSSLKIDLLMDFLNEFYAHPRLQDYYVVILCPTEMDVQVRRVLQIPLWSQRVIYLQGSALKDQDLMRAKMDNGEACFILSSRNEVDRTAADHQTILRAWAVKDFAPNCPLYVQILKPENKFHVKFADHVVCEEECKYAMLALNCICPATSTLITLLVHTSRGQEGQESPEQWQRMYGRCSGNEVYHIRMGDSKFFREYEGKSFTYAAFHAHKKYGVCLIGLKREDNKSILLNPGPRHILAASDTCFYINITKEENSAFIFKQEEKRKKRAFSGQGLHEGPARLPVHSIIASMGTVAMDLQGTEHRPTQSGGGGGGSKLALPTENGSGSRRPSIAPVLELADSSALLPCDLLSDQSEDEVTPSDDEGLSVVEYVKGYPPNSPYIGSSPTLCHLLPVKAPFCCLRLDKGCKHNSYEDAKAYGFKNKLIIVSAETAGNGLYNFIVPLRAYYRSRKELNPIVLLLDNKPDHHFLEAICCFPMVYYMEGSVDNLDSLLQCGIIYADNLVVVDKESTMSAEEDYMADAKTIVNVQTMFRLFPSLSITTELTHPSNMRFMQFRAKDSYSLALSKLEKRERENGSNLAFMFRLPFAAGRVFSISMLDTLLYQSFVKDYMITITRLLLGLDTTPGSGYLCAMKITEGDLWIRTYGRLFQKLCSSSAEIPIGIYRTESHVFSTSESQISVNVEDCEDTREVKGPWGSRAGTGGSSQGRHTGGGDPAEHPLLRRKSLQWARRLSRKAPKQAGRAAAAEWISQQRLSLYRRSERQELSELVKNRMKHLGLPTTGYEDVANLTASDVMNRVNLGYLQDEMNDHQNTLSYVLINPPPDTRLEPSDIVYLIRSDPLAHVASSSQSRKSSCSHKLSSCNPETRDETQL
Assay: KCNT1 patch clamp assay (SyncroPatch 384PE automated patch clamp)
Details: tetracycline inducible HEK-TREX cell line; perforated patch; step from −80 mV to 0 mV; room temperature; read-out: KCNT1-WT IC50
pIC50: −log10 of the molar value.
Catalogue of molecules with associated pIC50

Examples from the recorded data:
* Cn1nc(C2CC2)cc1C(=O)NC(Cc1ccccc1)c1nc(-c2cccc(F)c2)no1 (centres unmarked) | 4.70 to 6.00
* Cc1nn(CC(F)F)cc1C(=O)N[C@@H](C)c1nc(-c2cccc(F)c2)no1 | 4.70 to 6.00
* Cc1cccc(-c2noc(C(C)NC(=O)c3cc(C(F)F)nn3C)n2)c1 (centres unmarked) | ≥ 6.00
* C[C@H](NC(=O)c1cc(C(F)(F)F)nn1C)c1nc(-c2ccnc(C(F)(F)F)n2)no1 | 4.70 to 6.00
* COCc1cc(-c2noc([C@H](C)NC(=O)OC(C)(C)C)n2)ccn1 | ≤ 4.70
* CC(C)Oc1cc(-c2noc([C@H](C)NC(=O)c3cc(C(F)(F)F)nn3C)n2)ccn1 | ≥ 6.00

Short answer for CC[C@H](NC(=O)c1cc(C)nn1C1CCOCC1)c1nc(-c2ccnc(C)c2)no1 : pIC50 was 4.70 to 6.00

Reported pIC50 for C[C@H](NC(=O)c1cc(C(F)(F)F)nn1C)c1nc(-c2ccnc(C3CCCC3)c2)no1 was ≥ 6.00

* * *

pIC50 values by entry
Molecular target: KCNT1 (KNa1.1, Slack) (Homo sapiens, UniProt Q5JUK3)
Experiment: KCNT1 patch clamp assay (SyncroPatch 384PE automated patch clamp)
Conditions: tetracycline inducible HEK-TREX cell line; perforated patch; step from −80 mV to 0 mV; room temperature; read-out: KCNT1-WT IC50
pIC50: −log10 of the molar value.

Study these solved cases before continuing.
* Cn1nc(C(F)(F)F)cc1C(=O)NC(c1nc(-c2cccc(F)c2)no1)C1COC1 (stereo not drawn) | 4.70 to 6.00
* CCOc1cc(-c2noc([C@H](C)NC(=O)c3cc(C(F)(F)F)nn3C)n2)ccn1 | ≥ 6.00
* C[C@@H](NC(=O)c1cc(C(F)(F)F)nn1C)c1nc(-c2ccc(F)c(F)c2)no1 (single isomer, unassigned) | ≥ 6.00
* CC(NC(=O)c1cc(C2CC2)nn1C)c1nc(-c2cccc(C(F)(F)F)c2)no1 (stereo not drawn) | ≥ 6.00

Record C[C@H](NC(=O)c1cc(C(F)(F)F)nn1C)c1nc(-c2ccnc(OC3CC(F)(F)C3)c2)no1 ; system KCNT1 (KNa1.1, Slack) (Homo sapiens, UniProt Q5JUK3); pIC50 = ≥ 6.00

Entry Cc1nn(C(C)C)cc1C(=O)NC(C)c1nc(-c2ccc(OC(F)(F)F)cc2)no1 (stereo not drawn) , KCNT1 (KNa1.1, Slack) (Homo sapiens, UniProt Q5JUK3) data, pIC50 value: 4.70 to 6.00

* * *

Biological target: KCNT1 (KNa1.1, Slack) (Homo sapiens)
Test: KCNT1 patch clamp assay (SyncroPatch 384PE automated patch clamp)
Conditions: tetracycline inducible HEK-TREX cell line; perforated patch; step from −80 mV to 0 mV; room temperature; read-out: KCNT1-WT IC50
Attribute Measured: IC50

Reference set, count: 3
- CC(NC(=O)c1cc(C2CC2)nn1C)c1nc(-c2ccc(F)cc2)no1 (stereo not drawn): 1000 to 20000 nM
- CN(C)C(=O)C[C@H](NC(=O)c1cc(C(F)(F)F)nn1C)c1nc(-c2cccc(F)c2)no1 (single isomer, unassigned): 1000 to 20000 nM
- C[C@H](NC(=O)c1cn(C)nc1C1CCC1)c1nc(-c2cccc(F)c2)no1: 1000 to 20000 nM

Looking up C[C@@H](NC(=O)OC(C)(C)C)c1nc(-c2ccnc(C(F)(F)F)c2)no1 , I see its IC50 listed as 1000 to 20000 nM

// IC50 value for CC[C@H](NC(=O)c1ccnn1-c1ccccc1)c1nc(-c2ccnc(C)c2)no1 : 1000 to 20000 nM

# IC50 (compound: Cn1nc(C(F)(F)F)cc1C(=O)NC1(c2nc(-c3cccc(F)c3)no2)COC1 ) is ≤ 1000 nM

IC50 reported for this compound CC(C)Oc1cc(-c2noc([C@H](C)NC(=O)c3cc(C(F)(F)F)nn3CC(=O)N(C)C)n2)ccn1 : ≤ 1000 nM

Entry under test: Cn1nc(C2CC2)cc1C(=O)NC1(c2nc(-c3cccc(F)c3)no2)CCCCC1 . Its IC50 was ≤ 1000 nM

Entry under test: C[C@H](NC(=O)c1ccn(Cc2ccccc2)n1)c1nc(-c2ccnc(C3CC3)c2)no1 . Its IC50 was ≤ 1000 nM

Measured IC50, CC(NC(=O)c1cc(C(F)(F)F)nn1C)c1nc(-c2cccc(C(N)=O)c2)no1 (stereo not drawn) : ≥ 20000 nM

Source of measurements: patent US20220259193A1
